All figures here come from patent US20230094952A1.

Tested on: mouse long-term hematopoietic stem cells
Assay: Reproducibility and concentration dependence test: 1-week culture of sorted Hoxb5-tri-mCherry mouse long-term hematopoietic stem cells, flow cytometry
Format: cell-based
Settings: Table 4; compound 0.3 μM; day 7 of culture; n=2
Kindly return 1 if reported Viable cell count is no lower than 200 cell; return -1 if it is lower.

Solved entries (count: 10):
[
  {
    "STRUCTURE": "C[C@H]1[C@H](c2ccco2)O[C@@H]2O[C@@]3(C)CC[C@H]4[C@H](C)CC[C@@H]1[C@@]24OO3",
    "SYSTEM_UNDER_TEST": "mouse long-term hematopoietic stem cells",
    "CATEGORY_LABEL": 1
  },
  {
    "STRUCTURE": "C[C@H]1[C@H](S(C)(=O)=O)O[C@@H]2O[C@@]3(C)CC[C@H]4[C@H](C)CC[C@@H]1[C@@]24OO3",
    "SYSTEM_UNDER_TEST": "mouse long-term hematopoietic stem cells",
    "CATEGORY_LABEL": 1
  },
  {
    "STRUCTURE": "C[C@H]1[C@@H](OCc2ccccc2)O[C@@H]2O[C@@]3(C)CC[C@H]4[C@H](C)CC[C@@H]1[C@@]24OO3",
    "SYSTEM_UNDER_TEST": "mouse long-term hematopoietic stem cells",
    "CATEGORY_LABEL": -1
  },
  {
    "STRUCTURE": "C[C@H]1[C@H](C(N)=O)O[C@@H]2O[C@@]3(C)CC[C@H]4[C@H](C)CC[C@@H]1[C@@]24OO3",
    "SYSTEM_UNDER_TEST": "mouse long-term hematopoietic stem cells",
    "CATEGORY_LABEL": 1
  },
  {
    "STRUCTURE": "CC(C)O[C@H]1O[C@@H]2O[C@@]3(C)CC[C@H]4[C@H](C)CC[C@@H]([C@H]1C)[C@@]24OO3",
    "SYSTEM_UNDER_TEST": "mouse long-term hematopoietic stem cells",
    "CATEGORY_LABEL": -1
  },
  {
    "STRUCTURE": "CC(=O)OCCO[C@@H]1O[C@@H]2O[C@@]3(C)CC[C@H]4[C@H](C)CC[C@@H]([C@H]1C)[C@@]24OO3",
    "SYSTEM_UNDER_TEST": "mouse long-term hematopoietic stem cells",
    "CATEGORY_LABEL": -1
  },
  {
    "STRUCTURE": "CC(=O)N[C@@H]1O[C@@H]2O[C@@]3(C)CC[C@H]4[C@H](C)CC[C@@H]([C@H]1C)[C@@]24OO3",
    "SYSTEM_UNDER_TEST": "mouse long-term hematopoietic stem cells",
    "CATEGORY_LABEL": 1
  },
  {
    "STRUCTURE": "C[C@H]1[C@@H](OCC(F)(F)F)O[C@@H]2O[C@@]3(C)CC[C@H]4[C@H](C)CC[C@@H]1[C@@]24OO3",
    "SYSTEM_UNDER_TEST": "mouse long-term hematopoietic stem cells",
    "CATEGORY_LABEL": -1
  },
  {
    "STRUCTURE": "C[C@H]1[C@@H](C)O[C@@H]2O[C@@]3(C)CC[C@H]4[C@H](C)CC[C@@H]1[C@@]24OO3",
    "SYSTEM_UNDER_TEST": "mouse long-term hematopoietic stem cells",
    "CATEGORY_LABEL": -1
  },
  {
    "STRUCTURE": "C[C@H]1[C@@H](OC2CCCCC2)O[C@@H]2O[C@@]3(C)CC[C@H]4[C@H](C)CC[C@@H]1[C@@]24OO3",
    "SYSTEM_UNDER_TEST": "mouse long-term hematopoietic stem cells",
    "CATEGORY_LABEL": -1
  }
]

I'd appreciate it if you could say whether "C[C@H]1[C@H](C(=O)O)O[C@@H]2O[C@@]3(C)CC[C@H]4[C@H](C)CC[C@@H]1[C@@]24OO3" has Viable cell count at least equal to 200 cell.
1

Quick check, Viable cell count >= 200 cell? "C[C@H]1[C@H](CN)O[C@@H]2O[C@@]3(C)CC[C@H]4[C@H](C)CC[C@@H]1[C@@]24OO3"
-1
